The following molecules were reported with Ki values on Histamine H3 receptor (Rattus norvegicus) in different studies.
Sequence (Q9QYN8 whole entry): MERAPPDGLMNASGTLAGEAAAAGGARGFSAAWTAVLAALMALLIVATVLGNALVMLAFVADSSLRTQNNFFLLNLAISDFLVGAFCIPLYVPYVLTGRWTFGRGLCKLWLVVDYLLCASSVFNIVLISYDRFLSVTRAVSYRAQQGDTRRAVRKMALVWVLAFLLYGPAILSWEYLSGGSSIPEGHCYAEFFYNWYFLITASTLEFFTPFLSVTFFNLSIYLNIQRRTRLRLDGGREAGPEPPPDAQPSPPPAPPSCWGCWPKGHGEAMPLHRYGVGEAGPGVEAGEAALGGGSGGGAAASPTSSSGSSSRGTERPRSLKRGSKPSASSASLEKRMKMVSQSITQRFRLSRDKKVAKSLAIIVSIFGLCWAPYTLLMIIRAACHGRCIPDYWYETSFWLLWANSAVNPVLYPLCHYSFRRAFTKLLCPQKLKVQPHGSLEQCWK

- CHEM SMILES: "C[C@@H]1CCCN1CCCOc1ccc(-c2ccc(=O)n(-c3ccccc3)c2)cc1"
  QUALIFIER SIGN: "="
  Ki (nM): 19
- CHEM SMILES: "O=c1c2ccsc2c(-c2ccc(OCCCN3CCCCC3)cc2)nn1Cc1ccc(Cl)cc1"
  QUALIFIER SIGN: "="
  Ki (nM): 143
- CHEM SMILES: "CC(C)C(=O)N1C[C@@H]2CC=C(c3ccc(CCN4CCCC4)cc3)[C@@H]2C1"
  QUALIFIER SIGN: "="
  Ki (nM): 5
- CHEM SMILES: "C[C@@H]1CCCN1CCc1cc2cc(CNc3ncc(Br)cn3)ccc2o1"
  QUALIFIER SIGN: "="
  Ki (nM): 4.02
- CHEM SMILES: "c1ccc2c(N3CCCNCC3)c3c(nc2c1)CCCCC3"
  QUALIFIER SIGN: ">"
  Ki (nM): 1000
- CHEM SMILES: "C[C@@H]1CCCN1CCc1cc2cc(Nc3ncccc3[N+](=O)[O-])ccc2o1"
  QUALIFIER SIGN: "="
  Ki (nM): 0.35
- CHEM SMILES: "O=c1ccc(-c2ccc(OC3CCN(C4CCCC4)CC3)cc2)n[nH]1"
  QUALIFIER SIGN: "="
  Ki (nM): 7
- CHEM SMILES: "O=C(c1ccc(OCCCN2CCN(C(=O)[C@@H]3CCN3)CC2)cc1)C1CC1"
  QUALIFIER SIGN: "="
  Ki (nM): 12.9
- CHEM SMILES: "O=C1c2ccc(-c3ccc(F)cc3)cc2CCN1CCN1CCCCCC1"
  QUALIFIER SIGN: "="
  Ki (nM): 47
- CHEM SMILES: "CC(=O)C1CCN(CCCOc2ccc3c(c2)CC[C@@H]2[C@@H]3CC[C@]3(C)[C@@H](N4CCCC4)CC[C@@H]23)CC1"
  QUALIFIER SIGN: "="
  Ki (nM): 7.5
- CHEM SMILES: "CCCC[C@H](c1ccc(-c2ccc(CN3CCCCC3)cc2)cc1)N1CCC[C@H]1C"
  QUALIFIER SIGN: "="
  Ki (nM): 12.6
